Hello, the source for this data is ChEMBL document CHEMBL1833882, in case you need it.

- System: Staphylococcus aureus
- PROCEDURE SUMMARY: Antibacterial activity against Staphylococcus aureus ATCC 25923 after 16 to 18 hrs by agar dilution method
- Format: functional
ASSAY METRIC: MIC

response.value for `O=CN1CCN(c2cc3c(cc2F)c(=O)ccn3C2CC2)CC1` (field: MIC) = > 64 µg/mL

The measured MIC associated with `CCn1ccc(=O)c2cc(F)c(N3CCNCC3)cc21` reads > 64 µg/mL

// sample `CCN1CCN(c2cc3c(cc2F)c(=O)ccn3C2CC2)CC1` , its MIC was > 64 µg/mL

Notebook: `CCn1cc(C(=O)O)c(=O)c2cc(F)c(N3CCNCC3)cc21` , MIC read as 2 µg/mL

Kindly note the recorded MIC for CC1CN(c2c(F)cc3c(=O)ccn(C4CC4)c3c2F)CCN1 (stereo not given) , which is > 64 µg/mL

MIC reading for `O=c1ccn(C2CC2)c2cc(N3CCNCC3)c(F)cc12` : > 64 µg/mL

Briefly, MIC measured for `CCN1CCN(c2cc3c(cc2F)c(=O)c(C(=O)O)cn3C2CC2)CC1` : 0.13 µg/mL

MIC reported for this molecule `CCn1ccc(=O)c2cc(F)c(N3CCN(C=O)CC3)cc21` : > 64 µg/mL

The measured MIC associated with `O=C(O)c1cn(C2CC2)c2cc(N3CCNCC3)c(F)cc2c1=O` reads 0.5 µg/mL

Looking up `O=CN1CCN(c2cc3c(cc2F)c(=O)c(C(=O)O)cn3C2CC2)CC1` , I found its MIC recorded as 0.5 µg/mL

* * *

- Tested on: Klebsiella pneumoniae
- PROCEDURE SUMMARY: Antibacterial activity against Klebsiella pneumoniae ATCC 13882 after 18 hrs by broth dilution method
- Assay type: functional
- TEST PARAMETERS: ATCC 13882, 18 h
Hi there, I'd appreciate the recorded MIC for every entry that follows.

The compound listed as `O=c1ccn(C2CC2)c2cc(N3CCNCC3)c(F)cc12` shows MIC equal to > 80 µg/mL

Entry under test: `CCN1CCN(c2cc3c(cc2F)c(=O)ccn3C2CC2)CC1` . Its MIC was > 80 µg/mL

// sample `CCn1ccc(=O)c2cc(F)c(N3CCN(C=O)CC3)cc21` , its MIC was > 80 µg/mL

* * *

- Test system: Staphylococcus aureus
- PROCEDURE SUMMARY: Antibacterial activity against methicillin-resistant Staphylococcus aureus 1094 after 18 hrs by broth dilution method
- Type: functional
- TEST PARAMETERS: Staphylococcus aureus, 1094, 18 h
Answer each item with its documented MIC.

Value (MIC, Staphylococcus aureus) for record `O=CN1CCN(c2cc3c(cc2F)c(=O)ccn3C2CC2)CC1` = > 80 µg/mL

Staphylococcus aureus MIC of `CCn1ccc(=O)c2cc(F)c(N3CCN(C=O)CC3)cc21` is > 80 µg/mL

Noted MIC for `O=c1ccn(C2CC2)c2cc(N3CCNCC3)c(F)cc12` , tested on Staphylococcus aureus: > 80 µg/mL

Sample `CCN1CCN(c2cc3c(cc2F)c(=O)ccn3C2CC2)CC1` , system: Staphylococcus aureus. Its MIC is > 80 µg/mL

Kindly note: Staphylococcus aureus, `CCn1ccc(=O)c2cc(F)c(N3CCNCC3)cc21` , MIC value reported: > 80 µg/mL

Noted MIC for CC1CN(c2c(F)cc3c(=O)ccn(C4CC4)c3c2F)CCN1 (stereo unspecified) , tested on Staphylococcus aureus: > 80 µg/mL
